- TARGET: hemagglutinin (HA) of influenza virus H7N3 A/NIBRG/60 (A/mallard/Netherlands/12/00) (influenza A virus)
- PROTOCOL_TEXT: cell-based or functional assay
Here, each record is paired with measured average neutralization titer data.
State just the number; it will be interpreted in nM.

Qu. Record request: average neutralization titer value, item MD2312 (bispecific antibody) EVQLVESGGGLVQAGDSLRLSCAASGPTFGMSAMGWFRQAPGKEREFVAAISGLGNPNYSDDVKGRFTISRENGRNTVYLQMNSLKPEDTAVYYCAQRKVYHVQGGDRPQAYDYWGQGTQVTVSSGGGGSGGGGSEVQLVESGGGLVQAGDSLRISCAASGRTLSIYSMGWFRQAPGKEREFVATIGWNSGRTFYPDSLKGRFTISRDNARNTLYLQMNNLRPEDTAVYYCAAAKGPLRLSSQADYWGQGTQVTVSSGGGGSGGGGSEVQLVESGGGLVQPGGSLRLSCAATGFTLENKAIGWFRQTPGSEREGVLCISKSGSWTYYTDSMRGRFTISRDNAENTVYLQMDSLKPEDTAVYYCATTTAGGGLCWDGTTFSRLASSWGQGTQVTVSS
Ans. 7.7

Qu. # get_value(readout='average neutralization titer', item= MD2322 (VHH) EVQLVESGGGLVQPGGSLRLSCAVSISIFDIYAMDWYRQAPGKQRDLVATSFRDGSTNYADSVKGRFTISRDNAKNTLYLQMNSLKPEDTAVYLCHVSLYRDPLGVAGGMGVYWGKGALVTVSSGGGGSGGGGSEVQLVESGGGLVQPGGSLRLSCAVSISIFDIYAMDWYRQAPGKQRDLVATSFRDGSTNYADSVKGRFTISRDNAKNTLYLQMNSLKPEDTAVYLCHVSLYRDPLGVAGGMGVYWGKGALVTVSSGGGGSGGGGSEVQLVESGGGLVQPGGSLRLSCAVSISIFDIYAMDWYRQAPGKQRDLVATSFRDGSTNYADSVKGRFTISRDNAKNTLYLQMNSLKPEDTAVYLCHVSLYRDPLGVAGGMGVYWGKGALVTVSS )
Ans. 6.1
